- Tested target: T1, cyno activated protein C (cyno (monkey))
- T1 construct: also called cyno aPC; cyno APC
- Procedure text: SPR (Biacore), 1:1 binding model
Measure name: koff (s⁻¹)
Kindly provide the numeric value in s⁻¹ only, without the unit symbol.

Binder | Unit spec | koff
Hu1573-5 (antibody, V domains shown, Humanized IgG, human gamma 1 / kappa constant regions by vectors pCP-hCg1 and pCP-hck; also called H1573VH.1B + H1573Vk.2B) VH: EVQLVESGGGLVQPGGSLRLSCAASGFTFSNYYLNWVRQAPGKGLEWVGDIRLKSNNYEKHYAESVKGRFTISRDDSKNSVYLQMNSLKTEDTAVYYCIREGDYFDYWGQGTTVTVSS VL: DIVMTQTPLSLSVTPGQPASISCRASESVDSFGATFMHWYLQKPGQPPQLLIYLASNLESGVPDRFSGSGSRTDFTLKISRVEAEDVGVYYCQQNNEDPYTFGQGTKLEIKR | s⁻¹ | 0.00293
1573 Chimeric (antibody, V domains shown, IgG; also called chimera 1573; 1573VH (chimeric) + 1573Vk (chimeric)) VH: EVKLEESGGGLVQPGGSMKLSCVASGFTFSNYYLNWVRQSPEKGLEWVADIRLKSNNYEKHYAESVKGRFTISRDDSKSSVYLQMNNLRAEDTGIYYCIREGDYFDYWGQGTTLTVSS VL: NIVLTQSPASLAVSLGQRATISCRASESVDSFGATFMHWYQQKPGQPPKLLIYLASNLESGVPARFSGSGSRTDFTLTIDPVEADDAATYYCQQNNEDPYTFGGGTKLEIKR | s⁻¹ | 0.00766

Alright, here's another binder for you.
Record 1573 mouse (antibody, V domains shown, Parental murine monoclonal antibody; also called mouse aPC monoclonal antibody 1573; HAPC1573) VH: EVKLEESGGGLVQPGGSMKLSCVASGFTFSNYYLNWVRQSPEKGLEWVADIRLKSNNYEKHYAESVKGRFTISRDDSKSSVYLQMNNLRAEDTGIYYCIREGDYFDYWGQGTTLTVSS VL: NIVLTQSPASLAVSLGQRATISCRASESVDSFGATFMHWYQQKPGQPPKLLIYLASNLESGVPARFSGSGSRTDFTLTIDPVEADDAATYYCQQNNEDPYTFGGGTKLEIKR . Reported koff: 0.00725
